target: isolated recombinant JAK1 kinase domain (Homo sapiens (Human), UniProt P23458); test: JAK1 enzyme assay (Caliper LabChip, Ki); assay type: biochemical; conditions: read-out: JAK1 Ki
Sequence (P23458 875-1153): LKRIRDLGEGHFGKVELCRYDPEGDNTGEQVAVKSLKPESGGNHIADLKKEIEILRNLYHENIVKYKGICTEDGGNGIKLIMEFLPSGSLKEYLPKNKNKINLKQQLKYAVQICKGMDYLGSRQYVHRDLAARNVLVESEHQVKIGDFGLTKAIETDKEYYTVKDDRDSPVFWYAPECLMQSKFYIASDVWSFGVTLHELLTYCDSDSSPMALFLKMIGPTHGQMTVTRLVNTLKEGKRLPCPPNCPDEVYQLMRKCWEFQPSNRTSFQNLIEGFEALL
REPORTED_PROPERTY: pKi
The read-out pKi is expressed as -log10 of concentration in moles per litre.

Past entries and their recorded results:
COMPOUND	RECORDED_VALUE
COC(=O)Nc1nn(C2(CC#N)CCN(Cc3ccc(-c4ccco4)cc3)CC2F)cc1C(N)=O (stereo not shown)	9.57
CN(C)C(=O)c1ccccc1-c1ccc(CN2CCC(CC#N)(n3cc(C(N)=O)c(NC(=O)C4CC4)n3)CC2)cc1	8.06
COC(=O)Nc1nn(C2(CC#N)CCN(Cc3ccc(-c4ccoc4)c(O)c3)CC2F)cc1C(N)=O (stereo not shown)	9.70

Next item in the queue.
Give recorded pKi with isolated recombinant JAK1 kinase domain (Homo sapiens (Human), UniProt P23458) for the following compound: COc1ccc(-c2ccc(CN3CCC(CC#N)(n4cc(C(N)=O)c(NC(=O)C5CC5)n4)CC3)cc2)cc1
8.96

###

molecular target: isolated recombinant JAK2 kinase domain (Homo sapiens (Human)); test: JAK2 enzyme assay (Caliper LabChip, Ki)
Sequence (O60674 849-1124): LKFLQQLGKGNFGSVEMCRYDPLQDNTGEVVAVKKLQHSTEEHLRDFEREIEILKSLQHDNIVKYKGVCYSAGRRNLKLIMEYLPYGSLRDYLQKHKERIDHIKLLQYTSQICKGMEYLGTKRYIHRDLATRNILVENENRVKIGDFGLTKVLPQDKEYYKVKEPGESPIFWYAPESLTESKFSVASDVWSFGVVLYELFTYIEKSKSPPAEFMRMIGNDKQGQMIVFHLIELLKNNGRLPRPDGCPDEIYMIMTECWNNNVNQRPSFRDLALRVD
REPORTED_PROPERTY: Ki (nM)
Number only, in nM; omit the unit.

Past entries and their recorded results:
MOLECULE	TGT	REPORTED_PROPERTY	RECORDED_VALUE
CC1(Oc2ccc(OC(F)F)cc2)CN(C2CCC(CC#N)(n3cc(C(N)=O)c(NC(=O)C4CC4)n3)CC2)C1 (stereo not shown)	isolated recombinant JAK2 kinase domain (Homo sapiens (Human))	Ki	2.1
COC(=O)Nc1nn(C2(CC#N)CCN(Cc3ccc(-c4ccoc4)nc3F)CC2F)cc1C(N)=O (stereo not shown)	isolated recombinant JAK2 kinase domain (Homo sapiens (Human))	Ki	0.89
N#CCC1(n2cc(C(N)=O)c(NC(=O)C3CC3)n2)CCC2(CC1)COC2	isolated recombinant JAK2 kinase domain (Homo sapiens (Human))	Ki	189
CCc1ccc(-c2ccc(CN3CCC(CC#N)(n4cc(C(N)=O)c(NC(=O)C5CC5)n4)C(F)C3)cc2O)cc1 (stereo not shown)	isolated recombinant JAK2 kinase domain (Homo sapiens (Human))	Ki	0.3
N#CCC1(n2cc(C(N)=O)c(NC(=O)C3CC3)n2)CCN(Cc2ccc(-c3ccccc3)c(Cl)c2)CC1	isolated recombinant JAK2 kinase domain (Homo sapiens (Human))	Ki	18.5

Reported Ki for N#CC[C@]1(n2cc(C(N)=O)c(NC(=O)C3CC3)n2)CC[C@@H](N2CC3(CCC3)C2)CC1 : what is it?
205

Subsequent entry: N#CCC1(n2cc(C(N)=O)c(NC(=O)C3CC3)n2)CCN(Cc2ccc(-c3ccoc3)cc2)CC1F (stereo not shown)
0.62

###

molecular target: isolated recombinant JAK1 kinase domain (Homo sapiens (Human), UniProt P23458); assay: JAK1 enzyme assay (Caliper LabChip, Ki); format: biochemical; conditions: read-out: JAK1 Ki
REPORTED_PROPERTY: Ki (nM)
Number only, in nM; omit the unit.

Past entries and their recorded results:
COMPOUND	Ki / nM
N#CCC1(n2cc(C(N)=O)c(NC(=O)C3CC3)n2)CCN(Cc2ccccc2OC(F)(F)F)CC1	34.1
N#CCC1(n2cc(C(N)=O)c(NC(=O)C3CC3)n2)CCN(C(=O)CCC(F)(F)F)CC1	3.7
N#CCC1(n2cc(C(N)=O)c(NC(=O)C3CC3)n2)CCN(Cc2ccc(SC(F)(F)F)cc2)CC1	39

Next item in the queue.
Reported Ki for N#CCC1(n2cc(C(N)=O)c(NC(=O)C3CC3)n2)CCN(C(=O)OCC(F)(F)F)CC1 : what is it?
2.3

src = patent US11731943B2
